- Test system: Mus musculus
- measurement_notes: Toxicity in PS mouse allografted with mouse P388 cells assessed as change in body weight at 1.6 ug/kg relative to control
- Format: organism-based
- measurement_parameters: in vivo, 0.0016 mg/kg
Entries are grouped by Activity into these classes: low range: < -1 g; mid range: ≥ -1 g and < 0.8 g; high range: ≥ 0.8 g

Use the examples below as a reference point.
{"smiles_representation": "COc1cc2cc(c1Cl)N(C)C(=O)C[C@H](OC(=O)[C@H](C)N(C)C(=O)CC(C)C)[C@]1(C)O[C@H]1[C@H](C)[C@@H]1C[C@@](O)(NC(=O)O1)[C@H](OC)/C=C/C=C(\\C)C2", "class_assignment": "low range"}
{"smiles_representation": "COc1cc2cc(c1Cl)N(C)C(=O)C[C@H](OC(=O)[C@H](C)N(C)C(C)=O)[C@]1(C)O[C@H]1[C@H](C)[C@@H]1C[C@@](O)(NC(=O)O1)[C@H](OC)/C=C/C=C(\\C)C2", "class_assignment": "high range"}

Ask: Into which category would you place `COc1cc2cc(c1Cl)NC(=O)/C=C/[C@]1(C)O[C@H]1[C@H](C)[C@@H]1C[C@@](O)(NC(=O)O1)[C@H](OC)/C=C/C=C(\C)C2` ?
Reply: mid range

Ask: Quick check: band for `COc1cc2cc(c1Cl)NC(=O)/C=C/C(C)=C/[C@H](C)[C@@H]1C[C@@](O)(NC(=O)O1)[C@H](OC)/C=C/C=C(\C)C2`
Reply: high range

Ask: Using the reported Activity, which band applies to `CCO[C@]12C[C@H](OC(=O)N1)[C@@H](C)[C@@H]1O[C@@]1(C)[C@@H](OC(=O)[C@H](C)N(C)C(C)=O)CC(=O)N(C)c1cc(cc(OC)c1Cl)C/C(C)=C/C=C/[C@H]2OC` ?
Reply: mid range

Ask: Form: Item = `C/C=C/C(=O)O[C@H]1CC(=O)N(C)c2cc(cc(OC)c2Cl)C/C(C)=C/C=C/[C@@H](OC)[C@@]2(O)C[C@H](OC(=O)N2)[C@@H](C)[C@@H]2O[C@@]12C` ; Class = ?
Reply: low range

Ask: State the band of `CCC(=O)O[C@H]1CC(=O)N(C)c2cc(cc(OC)c2Cl)C/C(C)=C/C=C/[C@@H](OC)[C@@]2(O)C[C@H](OC(=O)N2)[C@@H](C)[C@@H]2O[C@@]12C`
Reply: mid range

Ask: # classify by Activity band: `COc1cc2cc(c1Cl)N(C)C(=O)C[C@H](OC(=O)[C@H](C)N(C)C(=O)C(C)C)[C@]1(C)O[C@H]1[C@H](C)[C@@H]1C[C@@](OC)(NC(=O)O1)[C@H](OC)/C=C/C=C(\C)C2`
Reply: low range

Value source: ChEMBL document CHEMBL3244382
